Each recorded value in this set is attributed to the supplement of paper PMC4206467.

test system: Perkinsus marinus PRA240; assay: ATP content (proliferation) relative to DMSO control; higher = more parasite growth (less inhibition); conditions: 20 µM; 4 days

MOLECULE	SYSTEM_TESTED	UNIT_SYMBOL	ATP content
Cc1ccc(C2CC(C(F)(F)F)n3nc(C(=O)N4CCN(C(c5ccccc5)c5ccccc5)CC4)cc3N2)cc1 (stereo not given)	Perkinsus marinus PRA240	%	144
COc1ccc2nc(C)cc(Nc3cccc(O)c3)c2c1	Perkinsus marinus PRA240	%	109
CC1CC(C)CN(C(=O)c2ccc(Cl)cc2Cl)C1 (stereo not given)	Perkinsus marinus PRA240	%	135
COc1ccc(CNC(=O)c2cc3c(=O)n4ccccc4nc3n(CCc3ccccc3)c2=N)cc1	Perkinsus marinus PRA240	%	107
CCN(Cc1ccccc1)C1CCN(Cc2cc(Br)ccc2O)CC1	Perkinsus marinus PRA240	%	171
O=C(Nc1ccc(-c2nc3cc4ccccc4cc3[nH]2)cc1)c1cccc(Br)c1	Perkinsus marinus PRA240	%	124
COc1ccc(C2c3ccc4ccccc4c3Oc3ncn(CCCn4ccnc4)c(=N)c32)cc1OC (stereo not given)	Perkinsus marinus PRA240	%	121
N=c1c2ccccc2nnn1-c1cccc(C(F)(F)F)c1	Perkinsus marinus PRA240	%	67.7
CCOC(=O)c1c(C)n(-c2ccccc2)c2ccc(OC(=O)c3cc(OC)c(OC)c(OC)c3)cc12	Perkinsus marinus PRA240	%	141
c1ccc(C2=Nc3ccccc3N=C(c3ccccc3)c3ccccc32)cc1	Perkinsus marinus PRA240	%	117

* * *

Quick list: ATP content per entry.
test system: Perkinsus marinus PRA240; assay: ATP content (proliferation) relative to DMSO control; higher = more parasite growth (less inhibition); conditions: 20 µM; 4 days

COMPOUND	ATP content (%)
O=C(NC1CCN(Cc2ccccc2)CC1)c1cc(-c2ccncc2)nc2ccc(Cl)cc12	172
COc1ccc2nc(C)cc(Nc3ccccc3O)c2c1	163
CCOc1ccc2nc(C)cc(Nc3ccc(Br)cc3)c2c1	3.75
O=C(Nc1ccc(Cl)cc1C(=O)Nc1ccncc1)c1ccc(Cl)cc1Cl	103
COc1cccc(NC(=O)Cn2c(C)c(C#N)c3ccccc32)c1	110
COc1ccc(-c2nc(N3CCN(C(=O)C4CCCCC4)CC3)c3c4c(sc3n2)CCCC4)cc1	69.7
Oc1c2c(nc3ccccc13)CCCC2	42.5
COc1ccc(-c2nonc2NC(=O)c2cccc(C)c2)cc1OC	82.6
CC(NCc1ccccc1)c1cc(Cl)ccc1O (stereo not drawn)	85.9
Brc1ccc(Nc2nc3ccccc3nc2Nc2ccc(Br)cc2)cc1	18.3
CCN(CC)CCCNc1ccnc2cc3ccccc3cc12	139
FC(F)(F)c1cccc(CNC2CCN(CCc3ccccc3)CC2)c1	95.6
COc1ccc(C2NCCc3c2[nH]c2ccccc32)cc1CN1CCN(c2ccc(F)cc2)CC1 (stereo not drawn)	171
COc1ccc(C=C2SC(Nc3ccccc3)=NC2=O)cc1	61.4
COc1ccc(Nc2nc(NN=Cc3ccc(O)cc3)nc(Nc3ccc([N+](=O)[O-])cc3)n2)cc1	39.1
Cc1ccc(C)c(-c2csc(Nc3ccc(C)c(C)c3)n2)c1	93.6
COc1ccc(C2N(C)c3ccccc3N2C)cc1	101
Cc1cc(=O)oc2c1ccc1oc(C(=O)c3ccccc3)c(C)c12	154
CN(C)c1ccc(N=Cc2ccc(N3CCOCC3)cc2)cc1	108
OCCNc1nc(Nc2ccc(Cl)c(Cl)c2)nc2ccccc12	28.8
Cc1cccc(N2C(=O)C3C(C2=O)C2(c4ccccc4)C(=O)C3(c3ccccc3)C(c3ccc4c(c3)OCO4)=C2c2ccc3c(c2)OCO3)c1 (stereo not drawn)	110
Cc1cc(Nc2ccc(OCc3ccccc3)cc2)nc2cc(O)ccc12	4.92
COc1ccc(C(=O)NC(c2ccc(Cl)cc2Cl)c2cc(Cl)c3cccnc3c2O)cc1 (stereo not drawn)	96.4
COc1cc(C(=O)Nc2ccc(-c3nc4ccccc4[nH]3)cc2)cc(OC)c1OC	124
O=C(Nc1ccc(N2CCN(Cc3ccccc3)CC2)cc1)c1cccs1	86.8
O=C(Nc1ccc(-c2nc3cc(NC(=O)c4ccc(Cl)cc4)ccc3[nH]2)cc1)c1ccc(Cl)cc1	141
CCCCNc1nc(NC(C)(C)C)nc(NC(C)(C)C)n1	116
CC(C)CCNCC(O)Cn1c2ccccc2c2ccccc21 (stereo not drawn)	140
COc1ccc(C(=O)C(CCC(CNC(C)(C)C)C(=O)c2ccc(OC)cc2)CNC(C)(C)C)cc1 (stereo not drawn)	120
OC(CNCc1ccccc1)Cn1c2ccccc2c2ccccc21 (stereo not drawn)	105
OC(CNCC1CCCO1)Cn1c2ccc(Cl)cc2c2cc(Cl)ccc21 (stereo not drawn)	142
CCOC(=O)C1=C(C)N=c2sc(=Cc3cc(Cl)ccc3O)c(=O)n2C1c1ccc(OC)cc1 (stereo not drawn)	61.6
CN1C=C(c2ccc3ccccc3n2)C(c2c[nH]c3ccccc23)c2ccccc21 (stereo not drawn)	108
COc1ccc(-c2cn3c(C(=O)Nc4ccccc4Cl)c(-c4ccccc4)c4c3n2CCCC4)cc1	99.7
Clc1ccc2c(N3CCCC3)ccnc2c1	91
CCOc1ccc(C=Cc2nc(=O)c3ccccc3o2)cc1	14.6
CC(C)OCc1cc(CN2CCN(c3cccc(Cl)c3)CC2)c(O)c2ncccc12	12
CCCCCCc1cc2cc(-c3nc4ccccc4[nH]3)c(=Nc3ccccc3C)oc2cc1O	121
Nc1ccc(-c2nc3cc(Oc4ccc(Oc5ccc6[nH]c(-c7ccc(N)cc7)nc6c5)cc4)ccc3[nH]2)cc1	74.1
CCCN(CCC)CCCNC(=O)c1cc2c(-c3ccc(OC)c(OC)c3)nn(C)c2s1	80.3
CCOC(=O)C1=CN(C)C=C(C(=O)OCC)C1c1cc(Br)c(OCC)c(OC)c1	121
N=c1n(CCN2CCCCC2)c2ccccc2n1CC(=O)c1ccc(Cl)c(Cl)c1	111
Oc1ccc(Cl)cc1CNc1nc2ccccc2[nH]1	49.7
